// reported protein stability index for each item listed
B1: TEKT4 (parent)
chain: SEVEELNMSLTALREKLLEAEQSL

Variants of: B1
Experiment: protein stability index of a GFP-peptide fusion (GPS, HEK-293T) (PSI 1-6); higher = more stable;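 further: lentivirally expressed fusions sorted by FACS into six bins by GFP to DsRed ratio, PSI derived from sequencing read proportions per bin multiplied by bin number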
Settings: c terminus: a fixed tail appended
Number only, please.

V3F 2.83
S1W 2.26
M8C 2.27
A20W 2.95
N7F 1.89

Reported protein stability index for "V3G" was 3.67

Reported protein stability index for "V3E" was 3.98

Reported protein stability index for "K16Q" was 2.83

Reported protein stability index for "R14V" was 2.07

Reported protein stability index for "A12G" was 2.56
